Recorded values, source the supplement of paper PMC10567573.

B1: SMTNL2 (parent)
chain: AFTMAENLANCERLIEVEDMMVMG

# Variants of: B1
# experiment_description: protein stability index of a GFP-peptide fusion (GPS, HEK-293T) (PSI 1-6); higher = more stable;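 also: lentivirally expressed fusions sorted by FACS into six bins by GFP to DsRed ratio, PSI derived from sequencing read proportions per bin multiplied by bin number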
# measurement_context: c terminus: a fixed tail appended
Label scheme for protein stability index: lower than 2 is -1, 2 and above is 1.

For orientation, consider the following solved cases.
M4L: -1
V22E: 1
E12D: 1
V17P: 1
M4S: 1

Exam item: Reported protein stability index reaches at least 2 for "M23Y" ?
Marked response: -1

Exam item: Reported protein stability index reaches at least 2 for "A1M" ?
Marked response: -1

Exam item: Reported protein stability index reaches at least 2 for "M21Q" ?
Marked response: 1

Exam item: Reported protein stability index reaches at least 2 for "E12Y" ?
Marked response: 1

Exam item: Reported protein stability index reaches at least 2 for "L8W" ?
Marked response: 1

Exam item: Reported protein stability index reaches at least 2 for "N10Q" ?
Marked response: 1

Exam item: Reported protein stability index reaches at least 2 for "V17I" ?
Marked response: 1

Exam item: Reported protein stability index reaches at least 2 for "I15S" ?
Marked response: 1
